Molecular target: AXL (human catalytic domain) (Homo sapiens, UniProt P30530)
Construct: purchased Upstate Ltd. 14-512
Sequence (P30530 473-894): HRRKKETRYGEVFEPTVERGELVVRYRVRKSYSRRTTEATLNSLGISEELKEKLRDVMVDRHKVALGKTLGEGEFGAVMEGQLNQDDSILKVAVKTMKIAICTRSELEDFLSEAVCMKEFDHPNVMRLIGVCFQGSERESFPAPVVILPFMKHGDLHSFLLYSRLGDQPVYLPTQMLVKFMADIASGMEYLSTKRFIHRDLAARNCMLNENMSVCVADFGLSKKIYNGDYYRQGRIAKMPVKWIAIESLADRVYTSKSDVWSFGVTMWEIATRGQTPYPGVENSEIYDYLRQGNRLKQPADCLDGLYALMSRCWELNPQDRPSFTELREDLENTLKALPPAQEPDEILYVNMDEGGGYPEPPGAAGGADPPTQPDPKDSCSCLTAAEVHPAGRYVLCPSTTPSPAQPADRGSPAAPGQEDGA
Experiment: AXL (human catalytic domain) Enzyme Activity Assay (IMAP fluorescence polarisation)
Type: biochemical
Settings: further data set (WW-001 through WW-169, XX-001 through XX-469, YY-001 through YY-016, ZZ-001 through ZZ-003); 150 μM ATP
Experimental: Biological Methods AXL (human catalytic domain) Enzyme Activity Assay Reagents Kinase Assay Reaction Buffer: This consisted of 20 mM HEPES pH 7.0, 10 mM MgCl2, 1 mM DTT, […], 0.01% Triton X100 (v/v), and 0.01% BSA (w/v). All buffer components were purchased from Sigma-Aldrich at reagent grade or higher. […] ATP: Supplied by Sigma (product code A-7699). […] Final ATP concentration in the assay was 150 μM; this concentration represents the KM.ATP for this enzyme calculated in this assay. […]
observationType: IC50

compound: COc1ccc(Nc2nc3cccc(-c4ccc5c(c4)OCCO5)n3n2)cc1OCCN1CCCC1 [XX-132]
IC50: ≤ 100 nM
--
compound: CCOc1ccc(-c2nccc3nc(Nc4ccc(OCCN5CCCC5)c(OC)c4)nn23)cc1 [YY-006]
IC50: 100 to 1000 nM
--
compound: Cn1nccc1-c1cccc(-c2cccc3nc(Nc4ccc(OCCN5CCCC5)cc4)nn23)c1 [XX-169]
IC50: 100 to 1000 nM
--
compound: c1cc(-c2ccc3nonc3c2)n2nc(Nc3ccc(OCCN4CCCC4)cc3)nc2c1 [XX-208]
IC50: 100 to 1000 nM
--
compound: c1ccc(-c2cccc3nc(Nc4ccc(OCCN5CCCC5)cc4)nn23)cc1 [XX-159]
IC50: 100 to 1000 nM

Challenge: # return recorded IC50 for input CC(C(=O)Nc1ccc(Nc2nc3cccc(-c4ccc5c(c4)OCCO5)n3n2)cc1)N1CCCC1 (stereo not drawn) [XX-135]
Response given: 100 to 1000 nM

Challenge: Determine its reported IC50: c1ccc(Cn2cc(-c3cccc4nc(Nc5ccc(OCCN6CCCC6)cc5)nn34)cn2)cc1 [XX-193]
Response given: 100 to 1000 nM

Challenge: Supply reported IC50 belonging to this compound: CNC(=O)COc1ccc(Nc2nc3cccc(-c4ccc(OC)cc4)n3n2)cc1 [XX-035]
Response given: ≤ 100 nM

====

target: AXL (human catalytic domain) (Homo sapiens); construct: purchased Upstate Ltd. 14-512; assay: AXL (human catalytic domain) Enzyme Activity Assay (IMAP fluorescence polarisation); type: biochemical; details: further data set (WW-001 through WW-169, XX-001 through XX-469, YY-001 through YY-016, ZZ-001 through ZZ-003); 150 μM ATP
pIC50: −log10 of the molar value.
The molecules listed here are annotated with their pIC50.

molecule: CCOc1ccc(-c2cccc3nc(NC(=O)C4CC4)nn23)cc1 [WW-035]
result: 6.00 to 7.00

Challenge: Given the molecule COc1ccc(-c2cccc3nc(Nc4ccc(OC[C@H](c5ccccc5)N5CCCC5)cc4)nn23)cc1 [XX-413] , write its reported pIC50.
Response given: 6.00 to 7.00

Challenge: Name the recorded pIC50 of the molecule listed here: Cc1cc(-c2cccc3nc(Nc4ccc(OCCN5CCCC5)cc4)nn23)ccc1N(C)C [XX-094]
Response given: 6.00 to 7.00

Challenge: Complete the entry with pIC50 for Cc1cccc(CS(=O)(=O)n2cc(-c3cccc4nc(Nc5ccc(OCCN6CCCC6)cc5)nn34)cn2)c1 [XX-286]
Response given: 6.00 to 7.00
